Provenance of the data: the DeepSol protein solubility set

test: soluble on expression in E. coli; label from the status in PepcDB or PDB records

{"columns": ["polymerSequence", "soluble on expression in E. coli"],
 "data": [
  ["MAMTKLDATLAMLKELTDARGIAGNEREPREVMKKYIEPFADELSTDNLGSLVAKKVGEENGPKIMVAGHLDEVGFMITQIDDKGFLRFQTVGGWWSQVMLAQRVTIVTRKGDVTGVIGSKPPHILPPEARKKPVEIKDMFIDIGASSQEEAMEWGVRPGDQVVPYFEFQVMKNEKMLLAKAWDNRIGCAIAIDVLKQLKDEKHPNVVYGVGTVQEEVGLRGAKTSANYIKPDIAFAVDVGIAGDTPGVTSKEAQSKMGDGPQIILYDASVIGHTGLRDFVVDVADELQIPYQYDSVAGGGTDAGAIHIAVNGIPSMAITIATRYIHSHAAMLHRDDYENAVKLIVEVIKRLDKEAVHNITFN", "not soluble"],
  ["MIQIRPMTPEDFDRFWPTFQAVVVAQETYAYDPALTQEQACDVWLKLPLHTLIAEEDGQLLGSYYLKANAAGPGNHVCNCGYMVTDAALGRGVARLMCEHSQQLARDSGFLAMQFNSVVASNEVAVALWAKLGFETVGRLPKAYRHARLGLVDCLVMFKWLADAPIAAEPVQPKLIGRKNIESVVSRPRRK", "not soluble"]
]}
